Origin of values: patent US20250064789A1

# experimental target: recombinant SARS-CoV-2 M^pro (Severe acute respiratory syndrome coronavirus 2 (2019-nCoV) (SARS-CoV-2), UniProt P0DTD1)
# protocol text: Inhibition of SARS-CoV-2 M^pro enzyme activity (fluorescent substrate assay)
# Type: biochemical
# test context: inhibition of SARS-CoV-2 M^pro enzyme activity; values in nM; read-out: IC50
Each entry below carries its reported IC50.
endpoint name: IC50 (nM)

# molecule, numeric readout
measured = [
    ("C[C@@H](NC(=O)C1C2CCCC2CN1C(=O)OC(C)(C)C)C(=O)N[C@H](Cc1ccccc1)C(=O)C(=O)NCc1ccccn1 (stereo partly shown) [Compound 118]", 40.2),
    ("CC(C)(C(=O)NCC1CCC(F)(F)CC1)C(=O)N[C@H](Cc1ccccc1)C(=O)C(=O)NCc1ccccn1 [Compound 324]", 9.6),
    ("C[C@@H](NC(=O)C1CCC(F)(F)CC1)C(=O)N[C@H](Cc1ccccc1)C(=O)C(=O)NCc1ccc(C(F)(F)F)cn1 [Compound 344]", 857),
    ("CC(C)(NC(=O)[C@@H]1C[C@@H]2[C@H](C1)C2(F)F)C(=O)N[C@H](Cc1ccccc1)C(=O)C(=O)NCc1ccccn1 [Compound 174]", 13.2),
    ("O=C(NCc1ccccn1)C(=O)[C@@H](Cc1ccccc1)NC(=O)[C@H]1Cc2ccccc2CN1C(=O)OC1CCC(F)(F)CC1 [Compound 312]", 14.5),
    ("COC[C@@H](NC(=O)N1CC(F)(F)C(F)(F)C1)C(=O)N[C@H](Cc1ccccc1)C(=O)C(=O)NCc1nccs1 [Compound 552]", 201),
    ("C[C@@H](NC(=O)c1cc(F)cc(C#N)c1)C(=O)N[C@H](Cc1ccccc1)C(=O)C(=O)NCc1ccccn1 [Compound 105]", 25.3),
    ("C[C@@H](NC(=O)Cc1ccc(F)cc1)C(=O)N[C@H](Cc1ccccc1)C(=O)C(=O)NCc1ccccn1 [Compound 75]", 19.3),
    ("CC(C)(C(=O)N[C@H](Cc1ccccc1)C(=O)C(=O)NCc1nccs1)n1cc(-c2cccc(OC(F)(F)F)c2)cn1 [Compound 529]", 224),
    ("C[C@@H](NC(=O)C1CCC(F)(F)CC1)C(=O)N[C@H](Cc1ccccc1)C(=O)C(=O)NCc1ccon1 [Compound 353]", 846),
    ("O=C(NCc1nccs1)C(=O)[C@@H](Cc1ccccc1)NC(=O)[C@H]1COCCN1C(=O)CC1CCC(F)(F)CC1 [Compound 411]", 15.5),
    ("O=C(NCc1nccs1)C(=O)[C@@H](Cc1ccccc1)NC(=O)[C@H](NC(=O)C1CCC(F)(F)CC1)C1CC1 [Compound 543]", 107),
    ("C[C@@H](NC(=O)CC1CCC(F)(F)CC1)C(=O)N[C@H](Cc1ccccc1)C(=O)C(=O)NCc1ccccn1 [Compound 111]", 25.3),
    ("C[C@@H](NC(=O)C1CCC(F)(F)CC1)C(=O)N[C@H](Cc1ccco1)C(=O)C(=O)NCc1ccccn1 [Compound 362]", 34),
    ("O=C(NCc1nccs1)C(=O)[C@@H](Cc1ccccc1)NC(=O)[C@@H](CO)NC(=O)C1CCCC(F)(F)C1 (stereo partly shown) [Compound 570]", 40.6),
    ("O=C(NCc1ccccn1)C(=O)[C@@H](Cc1ccccc1)NC(=O)[C@@]1(NC(=O)C2CCC(F)(F)CC2)C[C@H]1C(F)F [Compound 233]", 10.3),
    ("O=C(Cn1nc(-c2ccc(F)cc2)cc1C(F)(F)F)N[C@H](Cc1ccccc1)C(=O)C(=O)NCc1nccs1 [Compound 530]", 32.5),
    ("O=C(CNC(=O)NC1CCC(F)(F)CC1)N[C@H](Cc1ccccc1)C(=O)C(=O)NCc1ccccn1 [Compound 305]", 24.3),
    ("O=C(NCc1ccccn1)C(=O)[C@@H](Cc1ccccc1)NC(=O)C1(NC(=O)C2CCC(F)(F)CC2)COC1 [Compound 234]", 18.8),
    ("O=C(NCc1ccccn1)C(=O)[C@@H](Cc1ccccc1)NC(=O)C1(NC(=O)[C@H]2CC[C@@H](F)CC2)CC1 [Compound 162]", 17.5),
    ("C[C@@H](OCc1ccc(Cl)c(Cl)c1)C(=O)N[C@H](Cc1ccccc1)C(=O)C(=O)NCc1ccccn1 [Compound 12]", 12.3),
    ("O=C(Cc1csc(C2CCC(F)(F)CC2)n1)N[C@H](Cc1ccccc1)C(=O)C(=O)NCc1nccs1 [Compound 511]", 30.4),
    ("C[C@@H](NC(=O)C1CCCCC1)C(=O)N[C@H](Cc1ccccc1)C(=O)C(=O)NCc1ccccn1 [Compound 146]", 12.3),
    ("N#Cc1cccc(-c2cnn(CC(=O)N[C@H](Cc3ccccc3)C(=O)C(=O)NCc3nccs3)c2)c1 [Compound 496]", 77),
    ("C[C@@H](NC(=O)C1CCS(=O)(=O)CC1)C(=O)N[C@H](Cc1ccccc1)C(=O)C(=O)NCc1ccccn1 [Compound 116]", 130),
]

* * *

# key: entry, value: IC50
# experimental target: recombinant SARS-CoV-2 M^pro (Severe acute respiratory syndrome coronavirus 2 (2019-nCoV) (SARS-CoV-2))
# protocol text: Inhibition of SARS-CoV-2 M^pro enzyme activity (fluorescent substrate assay)
# Assay type: biochemical
# test context: inhibition of SARS-CoV-2 M^pro enzyme activity; values in nM; read-out: IC50

# molecule, IC50 / nM
measured = [
    ("CC1(C)C(C(=O)NC2CC(F)(F)C2)C1C(=O)N[C@H](Cc1ccccc1)C(=O)C(=O)NCc1nccs1 (stereo partly shown)", 203),
    ("C[C@@H](NC(=O)C1CCC(F)(F)C1)C(=O)N[C@H](Cc1ccccc1)C(=O)C(=O)NCc1cscn1 (stereo partly shown)", 19.4),
    ("O=C(CC1CC1(F)F)NCC(=O)N[C@H](Cc1ccccc1)C(=O)C(=O)NCc1nccs1 (stereo partly shown)", 166),
    ("C[C@@H](NC(=O)COc1ccc(Cl)cc1F)C(=O)N[C@H](Cc1ccccc1)C(=O)C(=O)NCc1ccccn1", 70.5),
    ("C[C@@H](NC(=O)c1cnccn1)C(=O)N[C@H](Cc1ccccc1)C(=O)C(=O)NCc1ccccn1", 161),
    ("O=C(Cc1noc(-c2ccc(F)c(C(F)(F)F)c2)n1)N[C@H](Cc1ccccc1)C(=O)C(=O)NCc1nccs1", 32.8),
    ("O=C(NCc1ccccn1)C(=O)[C@@H](Cc1ccccc1)NC(=O)[C@H]1CCCCN1C(=O)[C@H]1CC[C@@H](C(F)(F)F)CC1", 14.8),
    ("O=C(Cn1cc(-c2cc(F)c(F)c(F)c2)cn1)N[C@H](Cc1ccccc1)C(=O)C(=O)NCc1nccs1", 47.7),
    ("O=C(CCC1CCC(F)(F)CC1)NCC(=O)N[C@H](Cc1ccccc1)C(=O)C(=O)NCc1ccccn1", 12),
    ("O=C(NC1(C(=O)N[C@H](Cc2ccccc2)C(=O)C(=O)NCc2ccccn2)CCC1)OCC1CCC(F)(F)CC1", 16),
    ("O=C(CNC(=O)c1ccc(F)c(Cl)c1)N[C@H](Cc1ccccc1)C(=O)C(=O)NCc1ccccn1", 18.5),
    ("COC[C@@H](NC(=O)OC1CC(F)(F)C1)C(=O)N[C@H](Cc1ccccc1)C(=O)C(=O)NCc1nccs1", 18.8),
    ("O=C(CNC(=O)c1ccc(Cl)cc1)N[C@H](Cc1ccccc1)C(=O)C(=O)NCc1ccccn1", 46.2),
    ("C[C@@H](NC(=O)c1ccc(Cl)cc1F)C(=O)N[C@H](Cc1ccccc1)C(=O)C(=O)NCc1ccccn1", 13),
    ("CC(C)(C)C(NC(=O)c1ccc(F)cc1)C(=O)N[C@H](Cc1ccccc1)C(=O)C(=O)NCc1ccccn1 (stereo partly shown)", 94.9),
    ("C[C@@H](NC(=O)C1C[C@@H]2[C@H](C1)C2(F)F)C(=O)N[C@H](Cc1ccco1)C(=O)C(=O)NCc1ccccn1 (stereo partly shown)", 64.6),
    ("O=C(CNC(=O)C1CCC(F)(F)C1)N[C@H](Cc1ccccc1)C(=O)C(=O)NCc1cscn1 (stereo partly shown)", 33.8),
    ("C[C@@H](NC(=O)c1ccnc(F)c1)C(=O)N[C@H](Cc1ccccc1)C(=O)C(=O)NCc1ccccn1", 66.4),
    ("COC[C@@H](NC(=O)C1CCCC(F)(F)C1)C(=O)N[C@H](Cc1ccccc1)C(=O)C(=O)NCc1cscn1 (stereo partly shown)", 22.5),
]

* * *

# experimental target: recombinant SARS-CoV-2 M^pro (Severe acute respiratory syndrome coronavirus 2 (2019-nCoV) (SARS-CoV-2), UniProt P0DTD1)
# protocol text: Inhibition of SARS-CoV-2 M^pro enzyme activity (fluorescent substrate assay)
# Assay type: biochemical
# test context: inhibition of SARS-CoV-2 M^pro enzyme activity; values in nM; read-out: IC50

# compound, IC50, nM
records = [
    ("COc1ccc(CO[C@H](C)C(=O)N[C@H](Cc2ccccc2)C(=O)C(=O)NCc2ccccn2)cc1F", 18.9),
    ("C[C@@H](NC(=O)Cc1ccc(C(F)(F)F)cc1)C(=O)N[C@H](Cc1ccccc1)C(=O)C(=O)NCc1ccccn1", 53.2),
    ("C[C@@H](OCc1cccc(F)c1)C(=O)N[C@H](Cc1ccccc1)C(=O)C(=O)NCc1ccccn1", 28.5),
    ("O=C(CNC(=O)C1CCC(F)(F)C1)N[C@H](Cc1ccccc1)C(=O)C(=O)NCc1nccs1 (stereo partly shown)", 109),
    ("O=C(NCc1ccccn1)C(=O)[C@@H](Cc1ccccc1)NC(=O)C1(NC(=O)C2CCC(F)(F)CC2)CCOC1 (stereo partly shown)", 18.1),
    ("CC(Oc1ccc(C2CC2(Cl)Cl)cc1)C(=O)N[C@H](C)C(=O)N[C@H](Cc1ccccc1)C(=O)C(=O)NCc1ccccn1 (stereo partly shown)", 37.2),
    ("O=C(CC1CCC(F)(F)CC1)NCC(=O)N[C@H](Cc1ccccc1)C(=O)C(=O)NCc1cscn1", 17.1),
]
